The following compounds each carry a recorded pKi for 5-hydroxytryptamine receptor 6 (Homo sapiens, UniProt P50406).
One number for each entry, as −log10 of the molar value.

Solved entries (count: 4):
| Compound | Number |
| --- | --- |
| O=S(=O)(c1cccc2ncccc12)N1CCC[C@H]1CCN1CCN(c2cccc3[nH]ccc23)CC1 | 5.64 |
| O=S(=O)(c1cncc2ccccc12)N1CCC[C@@H]1CCN1CCN(c2nsc3ccccc23)CC1 | 7.40 |
| O=C1Cc2cc(CCN3CCN(c4nsc5ccccc45)CC3)c(Cl)cc2N1 [ZIPRASIDONE] | 7.70 |
| O=S(=O)(c1cccc2ncccc12)N1CC[C@@H]1CCN1CCN(c2cccc3sccc23)CC1 | 6.89 |

I have 5 compounds here; please give me pKi for each one.
1. O=c1[nH]c2c(N3CCN(CC[C@H]4CCCN4S(=O)(=O)c4cncc5ccccc45)CC3)cccc2o1
2. O=S(=O)(c1cccc2ncccc12)N1CCC[C@@H]1CCN1CC=C(c2c[nH]c3ccc(Cl)cc23)CC1
3. O=S(=O)(c1cncc2ccccc12)N1CC[C@@H]1CCN1CCN(c2cccc3sccc23)CC1
4. O=S(=O)(c1cncc2ccccc12)N1CCC[C@@H]1CCN1CCN(c2cccc3[nH]ccc23)CC1
5. O=S(=O)(c1cccc2ncccc12)N1CCC[C@H]1CCN1CCN(c2nsc3ccccc23)CC1

Reply text:
[5.74, 7.74, 6.98, 6.12, 6.51]

Values from ChEMBL document CHEMBL4229332
